Data credit: patent US9834518B2

Entries and their IC50
EXPERIMENTAL_SYSTEM: EGFR bearing the L858R mution (Homo sapiens, UniProt P00533, L858R)
Sequence (P00533 25-1210 L858R): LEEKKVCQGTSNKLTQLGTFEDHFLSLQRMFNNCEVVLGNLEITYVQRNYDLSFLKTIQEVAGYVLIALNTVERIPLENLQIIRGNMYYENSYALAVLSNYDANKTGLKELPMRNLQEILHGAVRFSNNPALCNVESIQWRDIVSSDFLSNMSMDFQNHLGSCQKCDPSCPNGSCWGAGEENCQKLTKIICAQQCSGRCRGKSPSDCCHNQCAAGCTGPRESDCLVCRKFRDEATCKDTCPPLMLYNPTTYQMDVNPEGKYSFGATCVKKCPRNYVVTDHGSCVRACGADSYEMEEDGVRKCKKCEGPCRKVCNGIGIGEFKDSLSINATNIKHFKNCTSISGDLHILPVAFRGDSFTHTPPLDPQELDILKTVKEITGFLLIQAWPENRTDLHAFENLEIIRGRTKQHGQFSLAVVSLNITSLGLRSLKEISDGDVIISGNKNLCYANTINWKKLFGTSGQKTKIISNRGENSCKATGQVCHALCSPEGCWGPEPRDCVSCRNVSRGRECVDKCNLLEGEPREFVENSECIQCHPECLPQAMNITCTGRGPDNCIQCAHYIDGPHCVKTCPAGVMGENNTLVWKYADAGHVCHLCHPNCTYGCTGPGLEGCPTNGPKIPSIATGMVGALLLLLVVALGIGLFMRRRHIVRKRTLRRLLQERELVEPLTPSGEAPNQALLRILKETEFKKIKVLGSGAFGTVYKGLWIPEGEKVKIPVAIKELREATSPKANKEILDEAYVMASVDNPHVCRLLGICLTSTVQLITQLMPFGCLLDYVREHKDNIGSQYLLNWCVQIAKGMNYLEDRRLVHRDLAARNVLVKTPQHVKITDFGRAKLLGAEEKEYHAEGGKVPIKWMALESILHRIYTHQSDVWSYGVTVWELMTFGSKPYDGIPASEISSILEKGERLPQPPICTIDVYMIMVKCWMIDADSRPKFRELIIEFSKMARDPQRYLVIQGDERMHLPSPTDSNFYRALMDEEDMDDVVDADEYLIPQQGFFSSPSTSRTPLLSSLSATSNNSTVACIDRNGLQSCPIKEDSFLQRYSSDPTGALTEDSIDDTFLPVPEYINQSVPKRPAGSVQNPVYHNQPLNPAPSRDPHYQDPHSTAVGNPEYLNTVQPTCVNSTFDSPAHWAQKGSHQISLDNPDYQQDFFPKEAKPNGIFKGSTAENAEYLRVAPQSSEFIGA
PROCEDURE_DETAILS: Kinase inhibition, EGFR L858R
Format: biochemical
RUN_PARAMETERS: 10 μM ATP; 10 pt curves, 3 μM top concentration (singlicates)
MEASUREMENT_NAME: IC50

INSERT INTO measurements (compound, test_value) VALUES
  ('C=CC(=O)Nc1ccc(OC)c(Nc2ncc(Cl)c(Nc3cccc(C)c3P(C)(C)=O)n2)c1 [Example 14]', '< 51 nM'),
  ('C=CC(=O)N[C@H]1CCC[C@@H](Nc2ncc(Cl)c(Nc3ccccc3P(C)(C)=O)n2)C1 (stereo in doubt) [Example 43]', '≥ 250 nM'),
  ('COc1ccc(N2C(=O)C=CC2=O)cc1Nc1ncc(Cl)c(Nc2ccccc2P(C)(C)=O)n1 [Example 46]', '101 to 250 nM'),
  ('C=CC(=O)Nc1cc(Nc2ncc(Cl)c(Nc3ccccc3P(C)(C)=O)n2)c(OC)cc1OCCOC [Example 25]', '< 51 nM');

====

EXPERIMENTAL_SYSTEM: human EGFR (native sequence) (Homo sapiens, UniProt P00533)
Sequence (P00533 25-1210): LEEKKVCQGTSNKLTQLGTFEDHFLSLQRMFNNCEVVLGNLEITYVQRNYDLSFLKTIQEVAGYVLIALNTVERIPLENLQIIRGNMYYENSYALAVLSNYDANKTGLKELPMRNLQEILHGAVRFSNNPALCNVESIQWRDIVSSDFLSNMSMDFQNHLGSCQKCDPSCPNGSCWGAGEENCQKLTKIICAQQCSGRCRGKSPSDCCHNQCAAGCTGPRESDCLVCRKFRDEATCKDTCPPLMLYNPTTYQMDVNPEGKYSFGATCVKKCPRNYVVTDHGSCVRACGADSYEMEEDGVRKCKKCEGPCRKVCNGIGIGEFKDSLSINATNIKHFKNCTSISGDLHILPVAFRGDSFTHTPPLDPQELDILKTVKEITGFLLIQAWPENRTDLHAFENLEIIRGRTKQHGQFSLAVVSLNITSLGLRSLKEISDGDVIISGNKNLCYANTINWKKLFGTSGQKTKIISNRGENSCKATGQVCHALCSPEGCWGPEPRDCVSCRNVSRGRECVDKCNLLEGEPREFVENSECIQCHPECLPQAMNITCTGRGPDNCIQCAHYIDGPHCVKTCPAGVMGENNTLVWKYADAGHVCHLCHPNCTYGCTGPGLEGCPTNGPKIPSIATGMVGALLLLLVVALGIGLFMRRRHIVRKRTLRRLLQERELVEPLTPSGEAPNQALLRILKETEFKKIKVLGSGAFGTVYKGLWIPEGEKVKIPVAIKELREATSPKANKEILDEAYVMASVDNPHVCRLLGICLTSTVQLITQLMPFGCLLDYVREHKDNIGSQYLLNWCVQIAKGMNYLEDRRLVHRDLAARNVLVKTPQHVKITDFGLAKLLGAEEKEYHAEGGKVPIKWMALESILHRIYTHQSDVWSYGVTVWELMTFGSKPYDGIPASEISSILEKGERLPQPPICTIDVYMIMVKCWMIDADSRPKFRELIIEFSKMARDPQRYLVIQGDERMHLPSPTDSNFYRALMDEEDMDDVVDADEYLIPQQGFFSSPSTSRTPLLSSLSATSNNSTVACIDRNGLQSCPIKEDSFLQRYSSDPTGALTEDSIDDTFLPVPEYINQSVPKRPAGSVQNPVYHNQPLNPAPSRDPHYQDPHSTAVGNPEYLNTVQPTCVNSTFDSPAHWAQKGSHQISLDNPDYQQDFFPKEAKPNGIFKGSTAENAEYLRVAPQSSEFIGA
PROCEDURE_DETAILS: Kinase inhibition, human EGFR (native sequence)
Format: biochemical
RUN_PARAMETERS: 10 μM ATP; 10 pt curves, 3 μM top concentration (singlicates)
Entries and their IC50
MEASUREMENT_NAME: IC50

INSERT INTO assay_data (molecule, test_value) VALUES
  ('C=CC(=O)Nc1cc(Nc2ncc(Cl)c(Nc3ccccc3P(C)(C)=O)n2)c(OC)cc1CCN(CC)CC [Example 41]', '< 51 nM'),
  ('COc1ccc(N2C(=O)C=CC2=O)cc1Nc1ncc(Cl)c(Nc2ccccc2P(C)(C)=O)n1 [Example 46]', '≥ 250 nM'),
  ('C=CC(=O)Nc1ccc(OC)c(Nc2ncc(Cl)c(Nc3cccc(F)c3P(C)(C)=O)n2)c1 [Example 53]', '51 to 100 nM'),
  ('C=CC(=O)Nc1ccc(OC)c(Nc2ncc(Br)c(Nc3ccccc3P(C)(C)=O)n2)c1 [Example 12]', '< 51 nM');

====

Entries and their IC50
EXPERIMENTAL_SYSTEM: EGFR bearing the L858R/T790M double mutation (Homo sapiens, UniProt P00533, L858R/T790M)
Sequence (P00533 25-1210 T790M/L858R): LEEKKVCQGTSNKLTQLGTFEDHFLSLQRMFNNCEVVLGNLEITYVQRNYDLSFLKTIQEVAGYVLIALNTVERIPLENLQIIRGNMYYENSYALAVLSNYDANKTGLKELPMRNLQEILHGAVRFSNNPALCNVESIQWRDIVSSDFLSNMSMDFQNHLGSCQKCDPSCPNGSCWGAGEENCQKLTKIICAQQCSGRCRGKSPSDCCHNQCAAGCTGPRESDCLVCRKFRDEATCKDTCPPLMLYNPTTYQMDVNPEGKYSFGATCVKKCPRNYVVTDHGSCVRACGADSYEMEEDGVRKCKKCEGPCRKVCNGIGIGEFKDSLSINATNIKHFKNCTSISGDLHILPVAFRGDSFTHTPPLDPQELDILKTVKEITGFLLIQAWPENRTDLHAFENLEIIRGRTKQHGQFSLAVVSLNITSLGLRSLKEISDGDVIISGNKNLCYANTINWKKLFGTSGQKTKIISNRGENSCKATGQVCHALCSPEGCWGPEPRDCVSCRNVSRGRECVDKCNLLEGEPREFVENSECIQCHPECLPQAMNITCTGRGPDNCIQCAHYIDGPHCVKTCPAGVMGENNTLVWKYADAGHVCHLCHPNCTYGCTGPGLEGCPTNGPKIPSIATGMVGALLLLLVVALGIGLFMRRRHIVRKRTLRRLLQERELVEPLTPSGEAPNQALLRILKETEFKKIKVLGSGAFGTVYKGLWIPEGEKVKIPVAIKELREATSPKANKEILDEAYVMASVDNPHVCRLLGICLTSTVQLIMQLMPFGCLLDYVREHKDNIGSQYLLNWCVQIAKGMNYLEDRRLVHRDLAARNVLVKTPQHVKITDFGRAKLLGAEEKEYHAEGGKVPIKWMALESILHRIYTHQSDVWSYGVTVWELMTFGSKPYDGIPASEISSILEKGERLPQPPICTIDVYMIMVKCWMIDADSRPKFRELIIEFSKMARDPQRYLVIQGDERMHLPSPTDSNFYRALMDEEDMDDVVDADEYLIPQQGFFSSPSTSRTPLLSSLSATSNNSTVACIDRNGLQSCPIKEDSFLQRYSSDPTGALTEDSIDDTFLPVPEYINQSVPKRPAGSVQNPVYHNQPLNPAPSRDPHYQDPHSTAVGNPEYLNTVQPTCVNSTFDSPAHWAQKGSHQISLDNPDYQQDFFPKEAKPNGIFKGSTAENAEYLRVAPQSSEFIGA
PROCEDURE_DETAILS: Kinase inhibition, EGFR L858R/T790M
Type: biochemical
RUN_PARAMETERS: 10 μM ATP; 10 pt curves, 3 μM top concentration (singlicates)
MEASUREMENT_NAME: IC50

INSERT INTO measurements (cpd_smiles, test_value) VALUES
  ('C=C(C)C(=O)Nc1ccc(OC)c(Nc2ncc(Cl)c(Nc3ccccc3P(C)(C)=O)n2)c1', '≥ 250 nM'),
  ('C=CC(=O)Nc1ccc(OC)c(Nc2ncc(CC)c(Nc3ccccc3P(C)(C)=O)n2)c1', '< 51 nM'),
  ('C=CC(=O)Nc1cc(Nc2ncc(Cl)c(Nc3ccccc3P(C)(C)=O)n2)c(OC)cc1OC', '< 51 nM'),
  ('CC#CC(=O)Nc1ccc(OC)c(Nc2ncc(Cl)c(Nc3ccccc3P(C)(C)=O)n2)c1', '≥ 250 nM'),
  ('C=CC(=O)Nc1ccc(OC)c(Nc2ncc(Cl)c(Nc3ccc(F)cc3P(C)(C)=O)n2)c1', '< 51 nM'),
  ('C=CC(=O)Nc1cc(Nc2ncc(Cl)c(Nc3ccccc3P(C)(C)=O)n2)c(OC)cc1N1CCN(C)CC1', '< 51 nM'),
  ('C=CC(=O)Nc1cc(Nc2ncc(Cl)c(Nc3ccccc3P(C)(C)=O)n2)c(OC)cc1N(C)CCN(C)CCOC', '< 51 nM');
